Reference source: the supplement of paper PMC10011410

For each of the compounds below, state its AUC of culture confluence over time.
Tested on: U-2 OS
Assay: AUC of culture confluence over time (live-cell imaging) (AUC (confluence % x time)); higher = more confluent culture (less growth inhibition)
Conditions: 40 µM

I have this compound here, CCCCCCCCCCCCCCCc1cccc(O)c1C(=O)O , and I need its recorded AUC of culture confluence over time. 51.2

I have this compound here, CCCCCOc1ccc(/C=C\c2cccc(O)c2C(=O)O)cc1 , and I need its recorded AUC of culture confluence over time. 34.2

I have this compound here, Cc1cc2c(C(C)C)c(O)c(O)c(C=O)c2c(O)c1-c1c(C)cc2c(C(C)C)c(O)c(O)c(C=O)c2c1O , and I need its recorded AUC of culture confluence over time. 18.2

I have this compound here, CC(=O)c1c(O)c(C)c(O)c(Cc2c(O)c3c(c(C(=O)C=Cc4ccccc4)c2O)OC(C)(C)C=C3)c1O , and I need its recorded AUC of culture confluence over time. 22.2

I have this compound here, CCCCCCCc1ccc(CCc2cccc(O)c2C(=O)O)cc1 , and I need its recorded AUC of culture confluence over time. 24.6

I have this compound here, O=C(OCC)/C(C(OCC)=O)=C\CCCCCCCCCCCCCC , and I need its recorded AUC of culture confluence over time. 50.4

I have this compound here, ClC1=CC=C(C2=CSC(N/N=C3CCCC/3)=N2)C=C1 , and I need its recorded AUC of culture confluence over time. 39.7

I have this compound here, CC(Cc1ccc(O)c(O)c1)C(C)Cc1ccc(O)c(O)c1 (stereo not drawn) , and I need its recorded AUC of culture confluence over time. 28.7
